Recorded values, source patent US20190338002A1.

assayedSystem: T1, human beta CGRP (SEQ ID NO: 81) (human, not fully specified)
T1 construct: also called human βCGRP; hβCGRP
T1 peptide: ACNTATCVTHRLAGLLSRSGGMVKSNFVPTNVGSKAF
measurementDescription: SPR, 37 C, mutein captured, CGRP analyte

binder: lipocalin mutein SEQ ID NO: 9 (designed binder, biotinylated by NHS chemistry for capture in SPR) QDSTSDLIPAPPLSKVPLQQNFQDNQFHGKWYVVGWAGNTLLREDKDPIKMQATIYELKEDKSYDVTWVYLSEKKCNYHIETSVPGSQPGEFTLGTIKSYPGETSILVRVVSTNYNQHAMVFFKGMSQNREIFEITLYGRTKELASELKENFIRFSKSLGLPENHIVFPVPIDQCIDGSAWSHPQFEK
unitsText: pM
Kd: 27

binder: lipocalin mutein SEQ ID NO: 22 (designed binder, biotinylated by NHS chemistry for capture in SPR) QDSTSDLIPAPPLSKVPLQQNFQDNQFHGKWYVVGRAGNDALREDKDPEKMEATIYELKEDKSYNVTDVGLVQKKCMYVIHTFVPGGQPGEFTLGNIKSYPGVTSALVRVVSTNYNQHAMVFVKLVKQNRELFEITLYGRTKELTSELKENFIRFSKSLGLPENHIVFPVPIDQCIDGSAWSHPQFEK
unitsText: pM
Kd: 3
